# System: HeLa S3
# assay_details: Antiproliferative activity against human HeLaS3 cells after 24 hrs by WST-1 assay
# Format: functional, cell-based
# test_settings: HeLa S3, 24 h
As shown below, each of these molecules has a reported IC50 value.
Give your result in µM as a bare value.

- molecule: "COc1c(OC)c2c(c(CCN(C)C)c1SC)SSc1c(CCN(C)C)c(SC)c(OC)c(OC)c1SSc1c(OC)c(OC)c(SC)c(CCN(C)C)c1SSc1c(CCN(C)C)c(SC)c(OC)c(OC)c1SS2"
  target_system: "HeLa S3"
  IC50 / µM: 6.3
- molecule: "COc1c(OC)c2c(c(CCN(C)C)c1SC)SSc1c(CCN(C)C)c(SC)c(OC)c(OC)c1Sc1c(OC)c(OC)c(SC)c(CCN(C)C)c1S2"
  target_system: "HeLa S3"
  IC50 / µM: 6.3
- molecule: "COc1cc([C@@H]2c3cc4c(cc3[C@@H](O[C@@H]3O[C@@H]5CO[C@@H](C)O[C@H]5[C@H](O)[C@H]3O)[C@H]3COC(=O)[C@H]23)OCO4)cc(OC)c1O [ETOPOSIDE]"
  target_system: "HeLa S3"
  IC50 / µM: 43.1
- molecule: "COc1cc(CCN(C)C)c2c(c1O)SSc1c(CCN(C)C)cc(OC)c(O)c1SS2"
  target_system: "HeLa S3"
  IC50 / µM: 14.2

# input molecule: COc1cc(CCN(C)C)c2c(c1O)SSSSS2 ; wanted: its IC50
5.9

Param item: COc1cc(CCN(C)C)c2sc3c(O)c(OC)cc(CCN(C)C)c3ssc2c1O
17.8

Param item: COc1c(OC)c2c(c(CCN(C)C)c1SC)Sc1c(OC)c(OC)c(SC)c(CCN(C)C)c1S2
16

----------
As shown below, each of these compounds has a reported pIC50 value.
# Test system: NCI-H28
# assay_details: Antiproliferative activity against human NCI-H28 cells after 24 hrs by WST-1 assay
# Type: functional, cell-based
# test_settings: NCI-H28, 24 h
Remember, pIC50 is on a log scale: it is -log10 of the molar concentration.

Observe how each entry below is paired with its result.
- smiles_input: "COc1c(OC)c2c(c(CCN(C)C)c1SC)SSc1c(CCN(C)C)c(SC)c(OC)c(OC)c1SSc1c(OC)c(OC)c(SC)c(CCN(C)C)c1SSc1c(CCN(C)C)c(SC)c(OC)c(OC)c1SS2"
  pIC50: 5.15
- smiles_input: "COc1cc(CCN(C)C)c2c(c1O)SSSSS2"
  pIC50: 5.19

Please turn your attention to the following entry.
# input compound: COc1c(OC)c2c(c(CCN(C)C)c1SC)SSc1c(CCN(C)C)c(SC)c(OC)c(OC)c1Sc1c(OC)c(OC)c(SC)c(CCN(C)C)c1S2 ; wanted: its pIC50
5.15

These data points were gathered from ChEMBL document CHEMBL4052605.
